pIC50 by entry:
test system: Rec-1; assay: WST-1 proliferation assay, Rec-1; assay type: cell-based, human; conditions: WST-1, 48 hours of treatment
Notebook: values listed as pIC50 are -log10 of the concentration (mol/L).

Consider the reported pIC50 for these compounds:
compound	assayedTarget	recordedValue
COC(=O)N(C)/N=N/c1ccc(COc2c(OC)cc([C@@H]3c4cc5c(cc4[C@@H](OC4O[C@@H]6CO[C@@H](C)O[C@H]6[C@H](O)[C@H]4O)[C@H]4COC(=O)[C@H]34)OCO5)cc2OC)cc1 (some centres unmarked)	Rec-1	4.62
COC(=O)N(C)/N=N/c1ccc(CNc2nc3ccc(OC(F)(F)F)cc3s2)cc1	Rec-1	4.74
COC(=O)N(C)/N=N/c1ccc(COc2cc(/C=C\c3cc(OC)c(OC)c(OC)c3)ccc2OC)cc1	Rec-1	6.89
CCc1c2c(nc3ccc(OCc4ccc(N=NN(C)C(=O)OC)cc4)cc13)-c1cc3c(c(=O)n1C2)COC(=O)C3(O)CC (centres unmarked)	Rec-1	6.23
COC(=O)N(C)/N=N/c1ccc(Cn2cc(F)c(=O)[nH]c2=O)cc1	Rec-1	6.89

Record request: pIC50 value, item COC(=O)N(C)/N=N/c1ccc(CSc2ncnc3nc[nH]c23)cc1
4.69

I'd like to know its pIC50. The compound in question is COC(=O)N(C)/N=N/c1ccc(CNc2cccc3c2CN(C2CCC(=O)NC2=O)C3=O)cc1 (centres unmarked)
4.85
